// provenance: paper PMC4336329

assayedSystem: human ether-à-go-go-related gene (hERG) potassium channel (human);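 further: peak tail current of the secondary pulse compared with the same well before compound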
Sequence (Q12809 whole entry, looked up): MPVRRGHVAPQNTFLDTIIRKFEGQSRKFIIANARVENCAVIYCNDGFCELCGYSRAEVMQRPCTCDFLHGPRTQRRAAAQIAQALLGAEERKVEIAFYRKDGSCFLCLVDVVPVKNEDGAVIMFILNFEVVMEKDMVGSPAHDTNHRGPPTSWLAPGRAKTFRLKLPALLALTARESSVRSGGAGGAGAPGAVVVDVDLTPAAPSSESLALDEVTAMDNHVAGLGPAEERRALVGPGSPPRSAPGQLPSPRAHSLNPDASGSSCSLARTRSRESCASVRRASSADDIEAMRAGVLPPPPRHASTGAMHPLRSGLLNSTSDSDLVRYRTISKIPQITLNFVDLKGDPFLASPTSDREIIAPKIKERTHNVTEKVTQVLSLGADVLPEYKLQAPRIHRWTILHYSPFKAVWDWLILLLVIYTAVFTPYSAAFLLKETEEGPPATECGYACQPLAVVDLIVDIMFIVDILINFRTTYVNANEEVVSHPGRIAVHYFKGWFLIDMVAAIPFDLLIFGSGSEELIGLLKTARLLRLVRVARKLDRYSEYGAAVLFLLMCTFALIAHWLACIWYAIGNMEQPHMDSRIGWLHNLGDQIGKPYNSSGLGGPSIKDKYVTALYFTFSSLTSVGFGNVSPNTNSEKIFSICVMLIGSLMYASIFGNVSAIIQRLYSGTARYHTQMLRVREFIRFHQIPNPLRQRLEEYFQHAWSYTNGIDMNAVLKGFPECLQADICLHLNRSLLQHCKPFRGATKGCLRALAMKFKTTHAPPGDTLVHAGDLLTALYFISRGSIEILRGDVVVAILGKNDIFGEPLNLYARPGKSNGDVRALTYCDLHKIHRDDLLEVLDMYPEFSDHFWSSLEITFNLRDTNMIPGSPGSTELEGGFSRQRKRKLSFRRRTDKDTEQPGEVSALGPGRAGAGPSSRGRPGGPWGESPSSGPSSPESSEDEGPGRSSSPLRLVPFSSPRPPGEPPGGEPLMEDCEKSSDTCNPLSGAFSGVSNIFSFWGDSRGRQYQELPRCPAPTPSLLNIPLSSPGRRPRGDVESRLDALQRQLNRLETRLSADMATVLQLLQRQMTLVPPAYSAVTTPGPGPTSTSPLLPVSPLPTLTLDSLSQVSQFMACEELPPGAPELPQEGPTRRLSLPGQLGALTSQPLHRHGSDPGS
procedureSummary: primary screen, population patch clamp on CHO cells stably expressing hERG; higher = less effect of the substance
Among all 310,000 compounds or so, about 14,000 (4.5%) showed an effect of 50% or more. The effect is printed as a negative number. Many of the other results were omitted from the sample, so strong results are more common in it than they were.
measurementName: hERG current change (%, negative = inhibition) at 10uM (%)
Give just the numeric value; % need not be written.

                                   compound                             assayedsystem  numericvalue
0       O=C(/C=C/c1ccc(F)cc1)N1CCCc2ccccc21  human ether-à-go-go-related gene (hERG) potassium channel (human)         -62.7
1                         CN(C)CCc1nn[nH]n1  human ether-à-go-go-related gene (hERG) potassium channel (human)        -0.456
2  O=C(O/N=C\c1ccc(N2CCCCC2)c([N+](=O)[O-])c1)c1ccc(Cl)cc1Cl  human ether-à-go-go-related gene (hERG) potassium channel (human)         -1.17
3  COc1ccc(/C=C/C(=O)N2CCC(c3ccccc3)C2)cc1 (centres unmarked)  human ether-à-go-go-related gene (hERG) potassium channel (human)         -47.4

hERG current change (%, negative = inhibition) at 10uM for CCn1c(-c2ccccc2)c[nH]c1=S ?
15.4

Recorded hERG current change (%, negative = inhibition) at 10uM of CCOc1ccc(C(=O)Nc2cccc(-n3cnnn3)c2)cc1OCC , please.
-40.4

// query hERG current change (%, negative = inhibition) at 10uM value for entry CC(C)(CNC(=O)c1ccc(-c2cccc(C(F)(F)F)c2)o1)N1CCOCC1
-76.3

Consider the compound shown here: CCOC(=O)c1ccc(N2C(=O)CC(Nc3ccc(CCO)cc3)C2=O)cc1 (centres unmarked) What is its recorded hERG current change (%, negative = inhibition) at 10uM?
-25.5

# lookup: hERG current change (%, negative = inhibition) at 10uM of COc1ccc(NC(=O)CCC(=O)Nc2ccc3nc(N4CCOCC4)cc(C)c3c2)c(OC)c1
16.5

Given CCCCNC(=O)O[C@H]1C[C@@H]2CCN3C(=O)CCC(C)(C)[C@H](C1)[C@H]23 , state its recorded hERG current change (%, negative = inhibition) at 10uM.
-23.5
